Test system: NCI-H23 lung
test details: NCI tumour cell line growth inhibition, 48 h
Below is a list of entries, each paired with its recorded TGI value.
Report the figure in µM without appending any unit label.

Prompt: Record O=C(NCCCNc1cc(-c2cn(-c3ccccc3)nc2-c2cccc(O)c2)ccn1)c1ccccc1 : what is its TGI with NCI-H23 lung?
Response: 26.6

Prompt: Also check CC/C=C\C[C@H](O)C/C=C1/C(=O)C=C[C@@H]1C/C=C\CCCC(=O)N(C)C
Response: 5.74

Prompt: Also check Clc1nc(Cl)c(Cl)c(Cl)n1
Response: 40.3

Prompt: Also check O=C1C(F)=CC(COC(c2ccccc2)(c2ccccc2)c2ccccc2)OC1n1cc(F)c(=O)[nH]c1=O (stereo not drawn)
Response: 3.91

Prompt: Also check ClC(Cl)c1nc(-c2cccnc2)n2nc(-c3ccccc3)cc2n1
Response: 2.9

---

Tested on: RPMI-8226 leukemia
test details: NCI tumour cell line growth inhibition, 48 h
reported endpoint: TGI

Check out these entries, answers already filled in.
C=C1C(=O)OC2CC1C(O)C/C(C)=C/CC/C(C)=C/C(O)CC2C (stereo not given): 6.23 µM
COc1ccc(N2C(=Nc3ccccc3)SC(=N/S(=O)(=O)c3ccccc3)/C2=N\S(=O)(=O)c2ccccc2)cc1: 50.8 µM
CCOC(=O)Oc1cc2c(c(OC)c1OC)-c1ccc(SC)c(=O)cc1C(NC(=O)C(F)(F)F)CC2 (stereo not given): 14.1 µM

Prompt: Record COC(=O)c1cc(NC(=O)c2cc(NC(=O)c3cc([N+](=O)[O-])cn3C)cn2C)cn1C : what is its TGI with RPMI-8226 leukemia?
Response: > 100 µM

Prompt: Also check O=C1CSC(/C(=C\c2ccc(Cl)cc2)c2nc3ccccc3[nH]2)=N1
Response: > 100 µM

---

System: NCI-H460 lung
test details: NCI tumour cell line growth inhibition, 48 h
Hi, to clarify the labels: label 1 covers TGI from 30 µM upward, label 0 covers anything below 30 µM.

Use these answered entries as a reference point.
CCOc1cc(NC(C)=O)ccc1C(=O)NN1C(=O)C(Oc2ccccc2)C1c1ccccc1 (configuration not stated): label 1
Cn1ncc2c(N)nc(N3CCCCC3)nc21: label 1
Cc1nc2sc(C(=O)Nc3cccc4ccccc34)c(N)c2cc1C(=O)c1ccccc1: label 0
O=C1CSc2nc3ccccc3n2/C=N\N1: label 1

Prompt: TGI >= 30 µM for CC[C@@]1(O)C(=O)NCc2c1cc1n(c2=O)Cc2cc3c(N)cccc3nc2-1 ?
Response: label 0

---

Below is a list of entries, each paired with its recorded TGI value.
Tested on: OVCAR-5 ovarian
test details: NCI tumour cell line growth inhibition, 48 h

Check out these entries, answers already filled in.
C(CCC[Te][Te]CCCCCCOC1CCCCO1)CCOC1CCCCO1 (centres undefined): 33.4 µM
CC(=O)N1CCc2c([nH]c3ccc(Br)cc23)C1c1ccccc1 (centres undefined): > 10 µM
Cc1ccsc1/C=N/Nc1cc(C)c2cccc(C)c2n1: > 100 µM

As a next step, examine the compound that follows.
Prompt: Fill blank: measured TGI of the compound O=C(/C=C/c1ccsc1)c1ccco1 is ____.
Response: 34.9 µM

---

Tested on: NCI-H23 lung
test details: NCI tumour cell line growth inhibition, 48 h
Below is a list of entries, each paired with its recorded TGI value.

Check out these entries, answers already filled in.
c1ccc(-c2sc(-c3cccs3)cc2Cc2cccs2)cc1: > 10 µM
c1ccc(C2=Nc3nc4ccccc4n3C(c3ccccc3)C2)cc1 (stereo not drawn): > 100 µM

Prompt: Record Cc1nc2sc(C(=O)Nc3cccc4ccccc34)c(N)c2cc1C(=O)c1ccccc1 : what is its TGI with NCI-H23 lung?
Response: > 50 µM
